Measured PBM 8-mer E-score of individual entries
# Test system: MvaT
# assay.protocol: PBM 8-mer E-score (mean of HK and ME arrays) (E-score (dimensionless, -0.5 to 0.5)); higher = stronger relative binding preference
In all, about 33,000 sequences were measured (“E-score (dimensionless, -0.5 to 0.5)”: median about -0.058, highest 2% from about 0.35 on). The sample as a whole holds a higher share of the highest values than the screen did.
Field format: numeric only.

Sample CTCCCTAA , system: MvaT. Its PBM 8-mer E-score is -0.204

Sample AAAGTTTA , system: MvaT. Its PBM 8-mer E-score is 0.353

Sample AATTACAA , system: MvaT. Its PBM 8-mer E-score is 0.367

Sample CATCCAAA , system: MvaT. Its PBM 8-mer E-score is 0.0181

Sample ATAAGTAC , system: MvaT. Its PBM 8-mer E-score is 0.305

Continuing:
Sample AATCTGCT , system: MvaT. Its PBM 8-mer E-score is -0.0198

Sample AAGAGGTC , system: MvaT. Its PBM 8-mer E-score is -0.209

Sample AATTACAT , system: MvaT. Its PBM 8-mer E-score is 0.327

Sample AGGGCCCG , system: MvaT. Its PBM 8-mer E-score is -0.227

Sample AAAACAAC , system: MvaT. Its PBM 8-mer E-score is 0.282

Sample ATAAGTAT , system: MvaT. Its PBM 8-mer E-score is 0.356

Sample ATTAATGA , system: MvaT. Its PBM 8-mer E-score is 0.363

Sample GTAAGTAA , system: MvaT. Its PBM 8-mer E-score is 0.207

Sample ATAACAAG , system: MvaT. Its PBM 8-mer E-score is 0.283

Sample ACGAGTAC , system: MvaT. Its PBM 8-mer E-score is 0.047

Sample CTAGTTTA , system: MvaT. Its PBM 8-mer E-score is 0.306
